src = ChEMBL document CHEMBL1201862

system: UACC-257; test: NCI tumour cell line growth inhibition, 48 h
Calls of active or inactive are those of the source. Rule as the data show it: active = GI50 up to about 1.1 µM and inactive = higher.

# compound, GI50
records = [
    ("CC(C)[C@@H]1C=C(c2ccccc2)c2ccccc2C1C(C#N)(C#N)C(C)C (some centres undefined)", "54.5 µM (inactive)"),
    ("COc1ccc(/C=C2/SC(c3c(O)ccc4ccccc34)N(NC(=O)CCCCCCCCC(=O)NN3C(=O)/C(=C\\c4ccc(OC)c(OC)c4)SC3c3c(O)ccc4ccccc34)C2=O)cc1OC (centres undefined)", "2.37 µM (inactive)"),
    ("CC(=O)NC1CC2Oc3ccc(C)cc3C(C)(O2)C1O (centres undefined)", "> 100 µM (inactive)"),
    ("O=C1CCCSC(=O)N1Cc1ccccc1", "> 100 µM (inactive)"),
    ("CC(C)OP(=O)(OC(C)C)c1nc(-c2ccccc2)n(-c2ccc([N+](=O)[O-])cc2)n1", "> 100 µM (inactive)"),
    ("COc1cccc(/C=N/n2c(Cc3ccccc3)n[nH]c2=O)c1", "> 100 µM (inactive)"),
    ("O=C(OCc1ccccc1)N(CCCCN(CCCNC(=O)C(F)(F)F)C(=O)OCc1ccccc1)CCCNC(=O)C(F)(F)F", "> 100 µM (inactive)"),
    ("Cc1nc(Nc2ccc(Cl)cc2Cl)sc1C(=O)Nc1ccccc1", "61.4 µM (inactive)"),
    ("Cc1ccc(P(c2ccc(C)cc2)c2ccc(C)cc2)cc1", "22.1 µM (inactive)"),
]

====

system: HCT-15
*1 amine or outer side, *2 acyl side, *3 side chain or, on linkers, in order; H or OH if unused. Where a SMILES comes first, the peptide text is derived from it. [ ]: non-standard residue; d: D form. The star is where a group is joined. ξ: configuration not given here. X43 = CCC(=O)CC(O)CC(C)CC(N[*:1])C(=O)[*:2]; ξLeu(3ξ-OH) = CC(C)C(O)C(N)C(=O)O; ξPro(4ξ-Me) = CC1CNC(C(=O)O)C1; X42 = CCC(C)/C=C/C(=O)*; Aib = CC(C)(N)C(=O)O; X44 = CC(CN(C)C)N*; βAla = NCCC(=O)O
Could you please mark 1 for values of GI50 below 5 µM and 0 for values at or above it?

# compound, group.label
rows = [
    ("C/C(CCn1[nH]c(=O)ccc1=O)=N\\O", 0),
    ("C[C@H]1CC(=O)C[C@@H]2CC[C@@H]3[C@H](CC[C@]4(C)C(OC(=O)c5cccc6c(=O)c7ccccc7[nH]c56)CC[C@@H]34)[C@]21C (stereo partly specified)", 0),
    ("CC(=O)O/N=C/c1c2ccccc2cc2ccccc12", 0),
    ("CN1CCC2(CC1)/C(=N/C1CCCCC1)NC(=S)N2c1ccccc1", 0),
    ("Cc1cc2c(cc1C)C(=O)C1(C2)Cc2c(C)ccc(C)c2C1=O (stereo unspecified)", 0),
    ("O=C(O)CSC(CC1(c2ccc(Cl)cc2)NC(=O)CS1)c1ccc(Cl)cc1 (stereo unspecified)", 0),
    ("C[N+]1(C(CO)Cc2c[nH]c3ccccc23)Cc2ccccc2C1 (stereo unspecified)", 0),
    ("CC(=O)NC1CC2Oc3ccc(C)cc3C(C)(O2)C1O (stereo unspecified)", 0),
    ("C/C(=N/NC(=O)CC(=O)N(C(=O)c1ccccc1Cl)c1ccc(C)cc1)c1cc2ccccc2oc1=O", 0),
    ("CCc1[nH]c(=O)nc(N)c1-c1ccc(N2CCCCC2)c([N+](=O)[O-])c1", 0),
    ("O=C(NCCCOC(=O)CCCCCCCCC(=O)OCCCNC(=O)NC(=O)c1c[nH]c(=O)[nH]c1=O)NC(=O)c1c[nH]c(=O)[nH]c1=O", 0),
    ("CC1CC(C(=O)OC2OC(COC3OC(CO)C(OC4OC(C)C(O)C(O)C4O)C(O)C3O)C(O)C(O)C2O)C2CCC3(C)C(=CCC4(C)C3CCC3C(C)(CO)C(O)C(O)CC34C)C2C1C (stereo unspecified)", 0),
    ("COc1ccc(/C(Cl)=C(\\C=O)c2ccc(Cl)c(Cl)c2)cc1", 1),
    ("C=C1C(=O)C23C(O)C1CC[C@H]2C12CCCC(C)(COC(C)=O)[C@H]1[C@H](O)[C@]3(O)OC2 (stereo partly specified)", 1),
    ("Cc1ccc(P(c2ccc(C)cc2)c2ccc(C)cc2)cc1", 0),
    ("COc1ccccc1/N=N/c1c(O)ccc2ccccc12", 0),
    ("CC(C)c1cc(C(C)C)c(B(c2ccccc2)c2ccccc2)c(C(C)C)c1B(c1ccccc1)c1ccccc1", 0),
    ("Cc1c(F)c(N)c2c(=O)cc(-c3ccc(NC(=O)[C@@H](N)CCCCN)c(F)c3)oc2c1F", 0),
    ("O=S(=O)(N/N=C/c1ccc(Cl)c(Cl)c1)c1ccccc1", 0),
    ("O=C1/C(=N\\O)c2ccccc2S1(=O)=O", 0),
    ("COC(=O)C1=C(OC(=O)/C=C/c2ccc(Cl)cc2)C(C(=O)OC)[C@]2(O)[C@@H](C(=O)OC)[C@H]1C[C@@H](c1ccccc1)[C@@H]2C(=O)OC (stereo partly specified)", 1),
    ("O=c1cc(-c2ccccc2)nc2[nH]ccn12", 0),
    ("CC(=O)C(C(C)=O)=C1CCCC(O)O1 (stereo unspecified)", 0),
    ("CSc1nc2cc(S(=O)(=O)N3CCCCC3)ccc2s1", 0),
    ("CC(C)[C@@H]1C=C(c2ccccc2)c2ccccc2C1C(C#N)(C#N)C(C)C (stereo partly specified)", 0),
    ("Cc1nc2ccc(F)cc2c2c1CCN2c1ccccc1", 0),
    ("CCN(CC)CC1CCCCCCCCCCC1=O (stereo unspecified)", 0),
    ("O=S(=O)(O)C(CO)c1ccccc1.O=S(=O)(O)Cc1ccccc1 (stereo unspecified)", 0),
    ("COc1cccc2c(NNc3ccc(Cl)cc3)c3ccc([N+](=O)[O-])cc3nc12", 0),
    ("COCC1C(=O)c2cc3c(cc2C12C=CC1(C=C2)OCCO1)OCO3 (stereo unspecified)", 1),
    ("CCC(=O)CC(O)CC(C)CC(NC(=O)C1CC(C)CN1C(=O)/C=C/C(C)CC)C(=O)NC(C(=O)NC(C)(C)C(=O)NC(CC(C)C)C(=O)NC(CC(C)C)C(=O)NC(C)(C)C(=O)NC(C)(C)C(=O)NCCC(=O)NC(C)CN(C)C)C(O)C(C)C (stereo unspecified) (X42-[ξPro(4ξ-Me)][X43][ξLeu(3ξ-OH)][Aib]LL[Aib][Aib][βAla]-X44; configuration not given here)", 0),
    ("FC(F)(F)C1(Cl)C(Cl)(c2ccccc2)C1(Cl)c1ccccc1 (stereo unspecified)", 0),
    ("CC1=NNC(=O)C1C1CC(c2c[nH]c3ccccc23)=NNC1=S (stereo unspecified)", 0),
    ("CCOc1cc(C2CC(c3ccc(NS(=O)(=O)c4cc([N+](=O)[O-])ccc4C)cc3)=NN2)ccc1O (stereo unspecified)", 0),
    ("COC(=O)NNc1c([N+](=O)[O-])cnn(-c2ccccc2)c1=O", 1),
    ("COc1ccc(/C=C2/SC(c3c(O)ccc4ccccc34)N(NC(=O)CCCCCCCCC(=O)NN3C(=O)/C(=C\\c4ccc(OC)c(OC)c4)SC3c3c(O)ccc4ccccc34)C2=O)cc1OC (stereo unspecified)", 1),
]
